Each recorded value in this set is attributed to PubChem BioAssay (NCATS).

System: Hek293T
TEST: Primary qHTS to identify gynecologic anti-cancer compounds using libraries of approved drugs and bioactive compounds (AID 1345084); further: on the % scale 0 is the no-effect control and ±100 the full control effect; nearly all actives have a fitted effect of over 55% in size
TEST_SETTINGS: Gynecologic cancer cell panel viability, ATPlite luminescence, 48 h, control line for the selectivity index; series mostly up to 57.5 µM
Results filed as inconclusive are left out. Calls of active or inactive are those of the source. The call rests on the fitted dose curve; in most records, active means well fitted cell-killing curve with a large enough effect; inconclusive means small, poorly fitted or top-dose-only effect, or effect the other way; inactive means flat fitted curve, though single readings scatter.
MEASUREMENT_KIND: activity change, negative = cytotoxicity

Solved entries:
{"MOLECULE": "C=CC1(C)CC(OC(=O)C(=C)C(O)COC(C)=O)C(C(=C)C(=O)OC)C(O)C1C(=C)CO (stereo not given)", "activity change, negative = cytotoxicity": "inactive"}
{"MOLECULE": "C=CCc1ccc(O[C@@H]2O[C@H](CO)[C@@H](O)[C@H](O)[C@H]2O)c(OC)c1", "activity change, negative = cytotoxicity": "inactive"}
{"MOLECULE": "CNC(=O)COC(=O)NCCC1CCN(c2cccc(C)n2)CC1", "activity change, negative = cytotoxicity": "inactive"}
{"MOLECULE": "C/C=C(\\C)C(=O)O[C@H]1[C@H](O)[C@]2(COC(C)=O)[C@H](O)C[C@]3(C)C(=CCC4[C@@]5(C)CC[C@H](O[C@@H]6O[C@H](C(=O)O)[C@@H](O[C@@H]7O[C@H](CO)[C@@H](O)[C@H](O)[C@H]7O)[C@H](O)[C@H]6O[C@@H]6O[C@H](CO)[C@@H](O)[C@H](O)[C@H]6O)[C@](C)(CO)C5CC[C@]43C)[C@@H]2CC1(C)C (stereo not given in full)", "activity change, negative = cytotoxicity": "5.9% [at 11.6 µM] (inactive)"}

Alright, here's another molecule for you.
Ask | Entry under review: Cn1c(=O)c2nc(/C=C/c3cccc(Cl)c3)n(C)c2n(C)c1=O . Reported activity change, negative = cytotoxicity?
Reply | inactive

====

System: CP217
TEST: qHTS profiling for inhibitors of Plasmodium falciparum proliferation (AID 504749); further: nearly all actives have a fitted effect of over 60% in size
TEST_SETTINGS: P. falciparum in erythrocytes, SYBR Green DNA, 72 h; series mostly up to 28.7 µM
Inconclusive results are not listed. Activity calls are given as the source filed them. Calls come from the whole dose curve; as a rule, active = well fitted inhibition curve with a large enough effect; inconclusive = small, poorly fitted or top-dose-only effect; inactive = flat fitted curve, though single readings scatter.
Answer with one of the outcomes given here: active, inactive

# example entries with known answers
{"COMPOUND": "COc1ccc2c3c1O[C@H]1C[C@@H](O)C=C[C@@]31CCN(C)C2", "TESTED_TARGET": "CP217", "LABEL": "inactive"}
{"COMPOUND": "CCCCCCCC/C=C\\CCCCCCCC(=O)O", "TESTED_TARGET": "CP217", "LABEL": "inactive"}
{"COMPOUND": "O=S(=O)(O)O", "TESTED_TARGET": "CP217", "LABEL": "inactive"}
{"COMPOUND": "O=C(Nc1cccc(C(F)(F)F)c1)c1cc(Br)cc(Br)c1O", "TESTED_TARGET": "CP217", "LABEL": "active"}
{"COMPOUND": "CC(Cc1ccc(O)c(O)c1)C(C)Cc1ccc(O)c(O)c1 (stereo not drawn)", "TESTED_TARGET": "CP217", "LABEL": "inactive"}
{"COMPOUND": "C[C@@H]1CCC2[C@@H](C)[C@@H](O)O[C@@H]3O[C@@]4(C)CC[C@@H]1[C@@]23OO4 (stereo partly drawn)", "TESTED_TARGET": "CP217", "LABEL": "active"}
{"COMPOUND": "O=CCCCC=O", "TESTED_TARGET": "CP217", "LABEL": "inactive"}

Kindly consider the entry below.
Ask | Assay result, entry Nc1c(N=Nc2ccc(-c3ccc(N=Nc4cc(S(=O)(=O)O)c5ccccc5c4N)cc3)cc2)cc(S(=O)(=O)O)c2ccccc12 — outcome?
Reply | inactive

====

TEST: Primary fluorescence-based thiol-reactive (MSTI) qHTS assay for identification of artifact compounds. (AID 1845221); further: nearly all actives have a fitted effect of over 65% in size
TEST_SETTINGS: MSTI thiol-reactivity probe, 1 h; series mostly up to 53.8 µM
Inconclusive results are not listed. Active and inactive are the calls of the source. Calls follow the shape of the dose curve; as a rule, active = well fitted inhibition curve with a large enough effect; inconclusive = small, poorly fitted or top-dose-only effect; inactive = no such curve, though single readings can be large or run the other way.
Answer with one of the outcomes given here: active, inactive

{"MOLECULE": "CCn1nnnc1NCc1ccc(C(C)C)cc1", "LABEL": "inactive"}
{"MOLECULE": "Cc1[nH]cnc1C1CCN(c2nc3cccc4c3n2CCC4=O)CC1", "LABEL": "inactive"}
{"MOLECULE": "CN(C)c1cccc(-c2c3c(=O)n(-c4ccccc4Cl)[nH]c3cc(=O)n2C)c1", "LABEL": "active"}
{"MOLECULE": "C=CC1(C)CC(OC(=O)C(=C)C(O)COC(C)=O)C(C(=C)C(=O)OC)C(O)C1C(=C)CO (stereo unspecified)", "LABEL": "inactive"}
{"MOLECULE": "CC1(C)CC[C@]2(C(=O)O)CC[C@]3(C)C(=CCC4[C@@]5(C)CCC(O[C@@H]6OC[C@H](O)[C@H](O)[C@H]6O[C@@H]6O[C@H](CO)[C@@H](O)[C@H](O)[C@H]6O)[C@@](C)(CO)C5CC[C@]43C)[C@@H]2C1 (stereo partly specified)", "LABEL": "inactive"}

Ask | Assay result, entry CC1(C)CCC(C)(C)c2cc3c(cc21)Sc1ccccc1N=C3c1ccc(C(=O)O)cc1 — outcome?
Reply | inactive

Ask | Assay result, entry CC(=O)O[C@H](C[C@@H](C)[C@H]1C(=O)[C@H](O)[C@@]2(C)[C@@H]3CCC4C(C)(C)[C@@H](O[C@@H]5OC[C@H](O)[C@H](O)[C@H]5O)CC[C@@]45C[C@@]35CC[C@]12C)[C@@H]1OC1(C)C (stereo partly specified) — outcome?
Reply | inactive

====

Test system: CP329
TEST: qHTS profiling for inhibitors of Plasmodium falciparum proliferation (AID 504749); further: nearly all actives have a fitted effect of over 60% in size
TEST_SETTINGS: P. falciparum in erythrocytes, SYBR Green DNA, 72 h; series mostly up to 28.7 µM
Records with an inconclusive call do not appear. The source made the active and inactive calls. Calls come from the whole dose curve; as a rule, active = well fitted inhibition curve with a large enough effect; inconclusive = small, poorly fitted or top-dose-only effect; inactive = flat fitted curve, though single readings scatter.
Answer with one of the outcomes given here: active, inactive

{"COMPOUND": "CCCCCCCCCCCCCCCC(=O)OCC(COC(=O)CCCCCCCCCCCCCCC)OC(=O)CCCCCCCCCCCCCCC", "LABEL": "inactive"}

Ask | Assay result, entry CCCCCCCC/C=C\CCCCCCCC(=O)O — outcome?
Reply | inactive

Ask | Assay result, entry COC(C(=O)C(O)C(C)O)C1Cc2cc3cc(OC4CC(OC5CC(O)C(O)C(C)O5)C(O)C(C)O4)c(C)c(O)c3c(O)c2C(=O)C1OC1CC(OC2CC(OC3CC(C)(O)C(O)C(C)O3)C(O)C(C)O2)C(O)C(C)O1 (stereo not drawn) — outcome?
Reply | active

====

Tested on: PA-1
TEST: Primary qHTS to identify gynecologic anti-cancer compounds using libraries of approved drugs and bioactive compounds (AID 1345084); further: on the % scale 0 is the no-effect control and ±100 the full control effect; nearly all actives have a fitted effect of over 55% in size
TEST_SETTINGS: Gynecologic cancer cell panel viability, ATPlite luminescence, 48 h; series mostly up to 57.5 µM
Results filed as inconclusive are left out. The source made the active and inactive calls. Calls come from the whole dose curve; as a rule, active = well fitted cell-killing curve with a large enough effect; inconclusive = small, poorly fitted or top-dose-only effect, or effect the other way; inactive = flat fitted curve, though single readings scatter.

{"COMPOUND": "CC1=CC(=O)C[C@H]2[C@@H]1CC[C@@H](C)[C@]21CO[C@H](c2ccoc2)C1=O", "activity change, negative = cytotoxicity": "inactive"}
{"COMPOUND": "CO[C@@H](Cc1ccc(OCCc2nc(-c3ccccc3)oc2C)c2ccsc12)C(=O)O", "activity change, negative = cytotoxicity": "inactive"}
{"COMPOUND": "C[C@]12CC[C@@H]3c4ccc(O[C@@H]5O[C@H](C(=O)O)[C@@H](O)[C@H](O)[C@H]5O)cc4CC[C@H]3[C@@H]1CCC2=O", "activity change, negative = cytotoxicity": "inactive"}
{"COMPOUND": "O=c1ccn(C2OC(CO)C(O)C2O)c(=O)[nH]1 (centres undefined)", "activity change, negative = cytotoxicity": "inactive"}

====

System: DIV30
TEST: qHTS profiling for inhibitors of Plasmodium falciparum proliferation (AID 504749); further: nearly all actives have a fitted effect of over 60% in size; further: potency means the concentration at half of the fitted maximal effect
TEST_SETTINGS: P. falciparum in erythrocytes, SYBR Green DNA, 72 h; series mostly up to 28.7 µM
Records with an inconclusive call do not appear. Active and inactive are the calls of the source. The call rests on the fitted dose curve; in most records, active means well fitted inhibition curve with a large enough effect; inconclusive means small, poorly fitted or top-dose-only effect; inactive means flat fitted curve, though single readings scatter.
MEASUREMENT_KIND: Potency

Solved entries:
{"COMPOUND": "CC(NNC(=O)c1ccccc1)c1ccccc1 (stereo not drawn)", "Potency": "inactive"}
{"COMPOUND": "CC(=O)Oc1c(C)cc(OCC(O)CNC(C)C)c(C)c1C (stereo not drawn)", "Potency": "inactive"}
{"COMPOUND": "CC[N+](C)(C)Cc1ccccc1Br", "Potency": "inactive"}
{"COMPOUND": "CCN(CC)CCOc1ccc(-c2nc3cc(Cl)ccc3s2)cc1", "Potency": "inactive"}
{"COMPOUND": "CCCCCCC(O)C/C=C/CCCCCCCC(=O)O (stereo not drawn)", "Potency": "inactive"}
{"COMPOUND": "CCOC(C)=O", "Potency": "inactive"}
{"COMPOUND": "CCCCCCCCCCCCCCCC(=O)OCC(COC(=O)CCCCCCCCCCCCCCC)OC(=O)CCCCCCCCCCCCCCC", "Potency": "inactive"}
{"COMPOUND": "C#CCOc1ccc2c(C)cc(=O)oc2c1", "Potency": "inactive"}
{"COMPOUND": "CCCC(=O)O[C@]1(C(=O)CCl)[C@H](C)C[C@@H]2[C@H]3CCC4=CC(=O)C=C[C@]4(C)[C@@]3(F)C(=O)C[C@@]21C", "Potency": "4.26 µM (active)"}
{"COMPOUND": "CO[C@H](C(=O)[C@@H](O)[C@@H](C)O)C1Cc2cc3cc(O[C@H]4C[C@@H](O[C@H]5C[C@@H](O)[C@H](O)[C@@H](C)O5)[C@@H](O)[C@@H](C)O4)c(C)c(O)c3c(O)c2C(=O)[C@H]1O[C@H]1C[C@@H](O[C@H]2C[C@@H](O[C@H]3C[C@](C)(O)[C@H](O)[C@@H](C)O3)[C@H](O)[C@@H](C)O2)[C@H](O)[C@@H](C)O1 (stereo partly drawn)", "Potency": "2.39 µM (active)"}

Ask | Kindly state the measured Potency obtained for CC1(C)S[C@@H]2[C@H](NC(=O)[C@@H](NC(=O)N3CCNC3=O)c3ccccc3)C(=O)N2[C@H]1C(=O)O with DIV30.
Reply | inactive

Ask | Kindly state the measured Potency obtained for O=C(O)CN(CCN(CC(=O)O)CC(=O)O)CC(=O)O with DIV30.
Reply | inactive

Ask | Kindly state the measured Potency obtained for NC1C2CN(c3nc4c(cc3F)c(=O)c(C(=O)O)cn4-c3ccc(F)cc3F)CC12 (stereo not drawn) with DIV30.
Reply | inactive
